Reported IC50, Kinesin-like protein KIF11 (Homo sapiens, UniProt P52732).
endpoint.label: IC50 (µM)

{"columns": ["compound", "IC50 (µM)"],
 "data": [
  ["CC1=C(C(=O)Nc2ccc([N+](=O)[O-])cc2)C(c2ccccc2)c2c[nH]nc2N1 (stereo not given)", 0.2],
  ["CC1=C(C(=O)Nc2ccc(F)cc2)C(c2ccco2)n2c(nc3ccccc32)N1 (stereo not given)", 5.65],
  ["COc1ccc(NC(=O)C2=C(C)Nc3nc4ccccc4n3C2c2ccco2)cc1 (stereo not given)", 2.46]
]}

A = CC1=C(C(=O)Nc2ccc(C(F)(F)F)cc2)C(c2ccco2)n2c(nc3ccccc32)N1 (stereo not given)
B = CC1=C(C(=O)Nc2ccc(F)c(Cl)c2)C(c2cccs2)c2c[nH]nc2N1 (stereo not given)
Lab log: flag the item ( A or B ) with the smaller IC50 figure. Select an item and report its label.
B
(B: 0.44 µM, A: 3.32 µM)

* * *

Reported IC50, Kinesin-like protein KIF11 (Homo sapiens).
endpoint.label: IC50 (nM)

Below: 3 compounds and their reported IC50.
{"columns": ["compound", "u", "IC50"],
 "data": [
  ["COc1ccc(NC(=O)C2=C(C)Nc3n[nH]cc3C2c2ccccc2)cc1 (stereo unspecified)", "nM", 2820],
  ["CCOC(=O)C1=C(C)NC(=S)NC1c1cccc(O)c1 (stereo unspecified)", "nM", 5470],
  ["CCC(c1nc2cc(Cl)ccc2c(=O)n1Cc1ccccc1)N(CCCN(C)C)C(=O)c1ccc(Br)cc1 (stereo unspecified)", "nM", 29]
]}

A = CN(C)c1ccc(-c2nc3cc(Cl)cnc3[nH]2)cc1
B = COc1ccc(NC(=O)C2=C(C)Nc3n[nH]cc3C2c2cccs2)cc1 (stereo unspecified)
Higher IC50: A or B ? Select an item and report its label.
A
(A: 40200 nM, B: 2.5 nM)

* * *

Biological target: Aurora kinase A (Homo sapiens)
Sequence (O14965 whole entry): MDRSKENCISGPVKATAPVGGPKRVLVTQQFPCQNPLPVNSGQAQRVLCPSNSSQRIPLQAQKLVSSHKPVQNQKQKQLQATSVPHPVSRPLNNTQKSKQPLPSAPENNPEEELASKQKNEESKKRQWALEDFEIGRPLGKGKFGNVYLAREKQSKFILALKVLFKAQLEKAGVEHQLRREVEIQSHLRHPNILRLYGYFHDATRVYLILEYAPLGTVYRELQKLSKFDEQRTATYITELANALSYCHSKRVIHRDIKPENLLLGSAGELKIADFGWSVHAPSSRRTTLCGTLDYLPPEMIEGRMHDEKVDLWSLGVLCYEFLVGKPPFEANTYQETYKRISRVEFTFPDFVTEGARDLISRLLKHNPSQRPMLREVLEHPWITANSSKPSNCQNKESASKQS
Experiment: Inhibition of human purified recombinant aurora-A kinase
pIC50: −log10 of the molar value.
endpoint.label: pIC50

Below: 3 molecules and their reported pIC50.
{"columns": ["molecule", "tgt", "endpoint.label", "reading"],
 "data": [
  ["CC1=C(C(=O)Nc2ccc(F)c(Cl)c2)C(c2ccco2)n2c(nc3ccccc32)N1 (stereo not drawn)", "Aurora kinase A (Homo sapiens)", "pIC50", 5.24],
  ["COc1ccc(NC(=O)C2=C(C)Nc3nc4ccccc4n3C2c2ccco2)cc1 (stereo not drawn)", "Aurora kinase A (Homo sapiens)", "pIC50", 5.12],
  ["CC1=C(C(=O)Nc2ccc(F)cc2)C(c2ccco2)n2c(nc3ccccc32)N1 (stereo not drawn)", "Aurora kinase A (Homo sapiens)", "pIC50", 5.21]
]}

1 = CN(C)c1ccc(-c2nc3cc(Cl)cnc3[nH]2)cc1
2 = CC1=C(C(=O)Nc2ccc([N+](=O)[O-])cc2)C(c2ccco2)n2c(nc3ccccc32)N1 (stereo not drawn)
3 = CC1=C(C(=O)Nc2ccc(C(F)(F)F)cc2)C(c2ccco2)n2c(nc3ccccc32)N1 (stereo not drawn)
Which order do these items take when sorted by rising pIC50? List them. Reply: labels, ordered per the request.
1, 2, 3
